assayText: growth inhibition of yeast control strain, primary screen, counter-screen for post-Golgi transport modulator project (AID 738)
statedConditions: efflux-deficient yeast background strain, growth absorbance A615, 16 h; at 10 µM
Hit rate of the full screen: of about 98,000 compounds, about 4,900 (5%) were called active. Rule as the data show it: active = inhibition above about 30%; inactive = the rest. Many of the other results were omitted from the sample, so actives are more common in it than they were.
Outcome codes: active, inactive

{"columns": ["chemicalStructure", "labelValue"],
 "data": [
  ["CCCc1cc(-c2n[nH]c(=S)n2Cc2ccccc2)cs1", "active"],
  ["Cc1cccc(NC(=O)CN2CCCN(S(=O)(=O)c3ccc(Br)s3)CC2)c1", "active"],
  ["Cn1sc(NC(=O)c2ccccc2)nc1=O", "inactive"],
  ["C=CCn1c(-c2ccc3[nH]c(C)c(C)c3c2)n[nH]c1=S", "inactive"],
  ["N#Cc1c(C(F)(F)F)cc(-c2ccccc2)nc1SCC(=O)N1CCOCC1", "inactive"],
  ["CC(C)Oc1ccc(CCc2n[nH]c(=S)n2Cc2ccccc2)cc1", "inactive"]
]}
